Origin of values: ChEMBL document CHEMBL2202961

- Tested on: LoVo
- procedure details: Cytotoxicity against human LoVo cells incubated for 72 hrs by MTT assay
- Assay type: functional, cell-based
Consider the following molecules; for each one, report its log10(IC50).
The figures below represent log10 of IC50, where IC50 is stated in µM.

Item: CC[C@@H](C(=O)[C@@H](C)[C@@H](O)[C@H](C)[C@@H]1O[C@@H]([C@@H](CC)C(=O)NCCCN2CCOCC2)CC[C@@H]1C)[C@H]1O[C@]2(C=C[C@@H](O)[C@]3(CC[C@@](C)([C@H]4CC[C@](O)(CC)[C@H](C)O4)O3)O2)[C@H](C)C[C@@H]1C | log10(IC50): 1.26

Sure, the documented log10(IC50) for CCCCNC(=O)[C@H](CC)[C@H]1CC[C@H](C)[C@H]([C@@H](C)[C@H](O)[C@H](C)C(=O)[C@H](CC)[C@H]2O[C@]3(C=C[C@@H](O)[C@]4(CC[C@@](C)([C@H]5CC[C@](O)(CC)[C@H](C)O5)O4)O3)[C@H](C)C[C@@H]2C)O1 is 0.61

Lab note: measured log10(IC50) of CC[C@@H](C(=O)[C@@H](C)[C@@H](O)[C@H](C)[C@@H]1O[C@@H]([C@@H](CC)C(=O)O)CC[C@@H]1C)[C@H]1O[C@]2(C=C[C@@H](O)[C@]3(CC[C@@](C)([C@H]4CC[C@](O)(CC)[C@H](C)O4)O3)O2)[C@H](C)C[C@@H]1C was 0.05

Note to self: log10(IC50) recorded for CC[C@@H](C(=O)[C@@H](C)[C@@H](O)[C@H](C)[C@@H]1O[C@@H]([C@@H](CC)C(=O)NCCOCCOCCOC)CC[C@@H]1C)[C@H]1O[C@]2(C=C[C@@H](O)[C@]3(CC[C@@](C)([C@H]4CC[C@](O)(CC)[C@H](C)O4)O3)O2)[C@H](C)C[C@@H]1C was 1.48

Input CC[C@@H](C(=O)[C@@H](C)[C@@H](O)[C@H](C)[C@@H]1O[C@@H]([C@@H](CC)C(=O)NCc2ccccc2)CC[C@@H]1C)[C@H]1O[C@]2(C=C[C@@H](O)[C@]3(CC[C@@](C)([C@H]4CC[C@](O)(CC)[C@H](C)O4)O3)O2)[C@H](C)C[C@@H]1C . Output log10(IC50): 0.60

For record CC[C@@H](C(=O)[C@@H](C)[C@@H](O)[C@H](C)[C@@H]1O[C@@H]([C@@H](CC)C(=O)Nc2ccccc2)CC[C@@H]1C)[C@H]1O[C@]2(C=C[C@@H](O)[C@]3(CC[C@@](C)([C@H]4CC[C@](O)(CC)[C@H](C)O4)O3)O2)[C@H](C)C[C@@H]1C the listed log10(IC50) is 0.61
